Ref: ChEMBL document CHEMBL4002630

# Test description: Volume of distribution at steady state in rhesus monkey at 0.5 mg/kg, iv
# Assay type: ADME, organism-based, Macaca mulatta
# Applied conditions: in vivo, read-out: Vdss
Measurement kind: Vd (L/kg)

Compound structure | Observed result
Cc1c([C@@H](O)CN2CCC3(CC2)CCN(c2cnc(S(C)(=O)=O)cn2)C3)ccc2c1COC2=O | 7

====

# Test description: Half life in rhesus monkey at 0.5 mg/kg, iv
# Format: ADME, organism-based, Macaca mulatta
# Applied conditions: in vivo

Compound structure | half-life, h
Cc1c([C@@H](O)CN2CCC3(CC2)CCN(c2cnc(S(C)(=O)=O)cn2)C3)ccc2c1COC2=O | 1.8
